The entries below come with measured IC50 values attached.
molecular target: Disintegrin and metalloproteinase domain-containing protein 17 (Homo sapiens, UniProt P78536); experiment: Inhibition of recombinant human TACE using Cy3-PLAQAV(Cy5Q-L-2,3-diaminopropionic acid)-RSSSR-NH2 as substrate measured after 40 mins by spectrofluorimetric method
Sequence (P78536 whole entry, the tested form may be a part): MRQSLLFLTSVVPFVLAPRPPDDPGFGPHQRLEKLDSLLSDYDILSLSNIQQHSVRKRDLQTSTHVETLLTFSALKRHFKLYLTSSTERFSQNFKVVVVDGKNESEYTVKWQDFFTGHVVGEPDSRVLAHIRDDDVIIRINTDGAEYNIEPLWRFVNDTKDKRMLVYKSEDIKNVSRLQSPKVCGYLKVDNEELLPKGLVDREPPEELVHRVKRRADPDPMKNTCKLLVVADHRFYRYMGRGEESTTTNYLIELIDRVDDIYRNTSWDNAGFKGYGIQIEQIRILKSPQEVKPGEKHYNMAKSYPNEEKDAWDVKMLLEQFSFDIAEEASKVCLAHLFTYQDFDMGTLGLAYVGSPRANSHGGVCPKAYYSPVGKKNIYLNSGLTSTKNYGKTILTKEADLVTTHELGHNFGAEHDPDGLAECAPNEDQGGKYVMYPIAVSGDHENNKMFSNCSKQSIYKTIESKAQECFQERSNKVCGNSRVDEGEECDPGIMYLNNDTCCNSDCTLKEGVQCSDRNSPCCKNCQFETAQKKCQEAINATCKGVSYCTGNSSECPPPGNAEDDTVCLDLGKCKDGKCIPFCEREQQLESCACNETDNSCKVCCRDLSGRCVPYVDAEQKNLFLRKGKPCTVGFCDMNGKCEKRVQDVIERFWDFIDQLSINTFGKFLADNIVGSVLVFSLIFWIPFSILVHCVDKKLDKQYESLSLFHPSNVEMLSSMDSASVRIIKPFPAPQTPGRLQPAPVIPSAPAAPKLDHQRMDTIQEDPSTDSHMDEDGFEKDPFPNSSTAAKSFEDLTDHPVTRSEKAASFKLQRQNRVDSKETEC

* O=C(NCc1cccc(OCCCS(=O)(=O)N2CCCCC2C(=O)O)c1)c1nc2ccccc2c(=O)[nH]1 (centres undefined) | > 10 µM
* CCOCCC1(Oc2ccc(-c3cccc(CNC(=O)c4nc5ccccc5c(=O)[nH]4)c3)cc2)C(=O)NC(=O)NC1=O | > 10 µM
* O=C(NCc1cccc(OCCCS(=O)(=O)N2CCCCC2C(=O)NO)c1)c1nc2ccccc2c(=O)[nH]1 (centres undefined) | 0.51 µM

Task item: # get_value(readout='IC50', item= CC(C)C(CS(=O)(=O)c1ccc(-c2cccc(CNC(=O)c3nc4ccccc4c(=O)[nH]3)c2)cc1)N(O)C=O (centres undefined) )
Reply: > 10 µM

====

The entries below come with measured pIC50 values attached.
target: Stromelysin-1 (Homo sapiens, UniProt P08254); experiment: Inhibition of recombinant human […]-activated MMP3 using Cy3-PLGLK(Cy5Q)AR-NH2 as substrate measured after 40 mins by spectrofluorimetric method
Sequence (P08254 whole entry): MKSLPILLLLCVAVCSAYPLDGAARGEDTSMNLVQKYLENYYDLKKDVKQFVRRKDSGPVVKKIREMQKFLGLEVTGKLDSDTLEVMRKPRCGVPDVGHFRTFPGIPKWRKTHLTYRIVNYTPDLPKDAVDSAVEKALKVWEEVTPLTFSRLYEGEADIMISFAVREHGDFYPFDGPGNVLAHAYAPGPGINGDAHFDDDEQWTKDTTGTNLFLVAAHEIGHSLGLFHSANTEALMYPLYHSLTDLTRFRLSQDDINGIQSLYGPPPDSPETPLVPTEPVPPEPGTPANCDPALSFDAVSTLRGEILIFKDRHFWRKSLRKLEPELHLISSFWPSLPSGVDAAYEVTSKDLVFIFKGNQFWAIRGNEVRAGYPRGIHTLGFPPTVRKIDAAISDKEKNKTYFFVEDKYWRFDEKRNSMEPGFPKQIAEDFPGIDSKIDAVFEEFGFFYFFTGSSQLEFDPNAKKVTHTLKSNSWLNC
Worth noting: pIC50 values are minus log10 of concentrations stated in mol/L.

Example entries and their recorded answers appear below.
• CC(C)C(CS(=O)(=O)c1ccc(-c2cccc(CNC(=O)c3nc4ccccc4c(=O)[nH]3)c2)cc1)N(O)C=O (centres undefined) = 8.60
• O=C(NCc1cccc(OCCCS(=O)(=O)N2CCCCC2C(=O)O)c1)c1nc2ccccc2c(=O)[nH]1 (centres undefined) = 6.43
• O=C(NCc1cccc(-c2ccc(CS(=O)(=O)Cc3n[nH]c(=O)[nH]3)cc2)c1)c1nc2ccccc2c(=O)[nH]1 = 5.62

Task item: # get_value(readout='pIC50', item= O=C(NCc1cccc(OCCCS(=O)(=O)N2CCCCC2C(=O)NO)c1)c1nc2ccccc2c(=O)[nH]1 (centres undefined) )
Reply: 8.59

====

assay: Clearance in rat liver microsomes; type: ADME; conditions: read-out: CLH
measure: microsomal CLint

* O=C(NCc1cccc(-c2ccc(CS(=O)(=O)Cc3n[nH]c(=O)[nH]3)cc2)c1)c1nc2ccccc2c(=O)[nH]1 | 13 µL/min/mg

Could you now look at the following molecule, please?
Task item: # get_value(readout='microsomal CLint', item= CC(=O)N(O)C(CS(=O)(=O)c1ccc(-c2cccc(CNC(=O)c3nc4ccccc4c(=O)[nH]3)c2)cc1)C(C)C (configuration not stated) )
Reply: 250 µL/min/mg

====

The entries below come with measured pIC50 values attached.
target: Neutrophil collagenase (Homo sapiens, UniProt P22894); assay: Inhibition of recombinant human […]-activated MMP8 using Cy3-PLGLK(Cy5Q)AR-NH2 as substrate measured after 40 mins by spectrofluorimetric method
Sequence (P22894 whole entry): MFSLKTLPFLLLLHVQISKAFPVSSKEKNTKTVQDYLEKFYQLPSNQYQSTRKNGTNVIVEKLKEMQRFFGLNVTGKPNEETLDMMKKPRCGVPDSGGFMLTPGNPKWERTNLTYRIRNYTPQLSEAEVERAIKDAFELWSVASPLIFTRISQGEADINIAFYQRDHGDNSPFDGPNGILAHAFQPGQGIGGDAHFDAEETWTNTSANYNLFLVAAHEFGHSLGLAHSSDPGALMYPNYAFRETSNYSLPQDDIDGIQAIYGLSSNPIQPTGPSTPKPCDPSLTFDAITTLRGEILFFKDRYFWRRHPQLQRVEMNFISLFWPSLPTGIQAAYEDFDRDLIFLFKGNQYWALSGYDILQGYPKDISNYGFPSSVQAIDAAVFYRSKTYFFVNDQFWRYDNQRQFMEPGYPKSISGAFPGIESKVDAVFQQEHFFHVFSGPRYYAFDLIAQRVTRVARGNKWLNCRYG
Worth noting: pIC50 values are minus log10 of concentrations stated in mol/L.

* CC(C)[C@H](NS(=O)(=O)c1ccc(-c2cccc(CNC(=O)c3nc4ccccc4c(=O)[nH]3)c2)cc1)C(=O)O | 8.05
* O=C(NCc1cccc(N2CCN(C(=O)Cc3c[nH]cn3)CC2)c1)c1nc2ccccc2c(=O)[nH]1 | 7.35
* O=C(NCc1cccc(OCCCOc2nc[nH]n2)c1)c1nc2ccccc2c(=O)[nH]1 | 7.66

Could you now look at the following compound, please?
Task item: # get_value(readout='pIC50', item= O=C(NCc1cccc(-c2ccc(CS(=O)(=O)Cc3n[nH]c(=O)[nH]3)cc2)c1)c1nc2ccccc2c(=O)[nH]1 )
Reply: 7.92

====

assay: Permeability of the compound at pH 7.4 by PAMPA assay; assay type: ADME; details: read-out: permeability
measure: Papp (×10⁻⁶ cm/s)
Reply with just the number (in ×10⁻⁶ cm/s).

- O=C(NCc1cccc(-c2ccc(CS(=O)(=O)Cc3n[nH]c(=O)[nH]3)cc2)c1)c1nc2ccccc2c(=O)[nH]1: 0.7
- CC(=O)N(O)C(CS(=O)(=O)c1ccc(-c2cccc(CNC(=O)c3nc4ccccc4c(=O)[nH]3)c2)cc1)C(C)C (stereo not drawn): 45.2

Could you now look at the following compound, please?
Task item: # get_value(readout='Papp', item= CCOCCC1(Oc2ccc(-c3cccc(CNC(=O)c4nc5ccccc5c(=O)[nH]4)c3)cc2)C(=O)NC(=O)NC1=O )
Reply: 9.5

====

target: UniProtKB P39900; test: Inhibition of recombinant human […]-activated MMP12 using Cy3-PLGLK(Cy5Q)AR-NH2 as substrate measured after 40 mins by spectrofluorimetric method
Sequence (P39900 whole entry): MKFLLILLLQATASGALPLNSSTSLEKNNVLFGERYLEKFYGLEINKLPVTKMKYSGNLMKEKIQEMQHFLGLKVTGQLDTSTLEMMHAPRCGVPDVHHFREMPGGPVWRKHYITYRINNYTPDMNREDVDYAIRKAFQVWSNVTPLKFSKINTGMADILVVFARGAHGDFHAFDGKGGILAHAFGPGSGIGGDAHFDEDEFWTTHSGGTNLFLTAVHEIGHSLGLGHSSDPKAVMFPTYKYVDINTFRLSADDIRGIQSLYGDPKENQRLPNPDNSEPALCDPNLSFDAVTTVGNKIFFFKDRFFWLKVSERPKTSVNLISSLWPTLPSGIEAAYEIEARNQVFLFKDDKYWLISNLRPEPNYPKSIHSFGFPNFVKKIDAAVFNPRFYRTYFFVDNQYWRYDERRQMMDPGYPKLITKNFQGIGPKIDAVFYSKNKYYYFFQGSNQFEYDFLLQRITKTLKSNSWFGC
measure: pIC50
Worth noting: pIC50 values are minus log10 of concentrations stated in mol/L.

Example entries and their recorded answers appear below.
- O=C(NCc1cccc(OCCCS(=O)(=O)N2CCCCC2C(=O)NO)c1)c1nc2ccccc2c(=O)[nH]1 (stereo not drawn): 8.74
- CC(C)[C@H](NS(=O)(=O)c1ccc(-c2cccc(CNC(=O)c3nc4ccccc4c(=O)[nH]3)c2)cc1)C(=O)NO: 8.09
- O=C(NCc1cccc(OCCCS(=O)(=O)N2CCCCC2C(=O)O)c1)c1nc2ccccc2c(=O)[nH]1 (stereo not drawn): 6.52
- O=C(NCc1cccc(-c2ccc(CS(=O)(=O)Cc3n[nH]c(=O)[nH]3)cc2)c1)c1nc2ccccc2c(=O)[nH]1: 5.02
- CCOCCC1(Oc2ccc(-c3cccc(CNC(=O)c4nc5ccccc5c(=O)[nH]4)c3)cc2)C(=O)NC(=O)NC1=O: 6.27
- O=C(NCc1cccc(N2CCN(C(=O)Cc3n[nH]c(=O)[nH]3)CC2)c1)c1nc2ccccc2c(=O)[nH]1: 6.59
- CC(C)[C@H](NS(=O)(=O)c1ccc(-c2cccc(CNC(=O)c3nc4ccccc4c(=O)[nH]3)c2)cc1)C(=O)O: 7.80

Could you now look at the following compound, please?
Task item: # get_value(readout='pIC50', item= CC(C)C(CS(=O)(=O)c1ccc(-c2cccc(CNC(=O)c3nc4ccccc4c(=O)[nH]3)c2)cc1)N(O)C=O (stereo not drawn) )
Reply: 8.07

====

assay: Solubility of the compound at pH 6.8; type: physicochemical; conditions: buffer
The entries below come with measured solubility values attached.
Reply with just the number (in µg/mL).

- CCOCCC1(Oc2ccc(-c3cccc(CNC(=O)c4nc5ccccc5c(=O)[nH]4)c3)cc2)C(=O)NC(=O)NC1=O: 9.1
- CC(=O)N(O)C(CS(=O)(=O)c1ccc(-c2cccc(CNC(=O)c3nc4ccccc4c(=O)[nH]3)c2)cc1)C(C)C (stereo not drawn): 0.93

Could you now look at the following compound, please?
Task item: # get_value(readout='solubility', item= O=C(NCc1cccc(-c2ccc(CS(=O)(=O)Cc3n[nH]c(=O)[nH]3)cc2)c1)c1nc2ccccc2c(=O)[nH]1 )
Reply: 0.48

====

biological target: Matrix metalloproteinase-9 (Homo sapiens, UniProt P14780); test: Inhibition of recombinant human […]-activated MMP9 using Cy3-PLGLK(Cy5Q)AR-NH2 as substrate measured after 40 mins by spectrofluorimetric method
Sequence (P14780 whole entry): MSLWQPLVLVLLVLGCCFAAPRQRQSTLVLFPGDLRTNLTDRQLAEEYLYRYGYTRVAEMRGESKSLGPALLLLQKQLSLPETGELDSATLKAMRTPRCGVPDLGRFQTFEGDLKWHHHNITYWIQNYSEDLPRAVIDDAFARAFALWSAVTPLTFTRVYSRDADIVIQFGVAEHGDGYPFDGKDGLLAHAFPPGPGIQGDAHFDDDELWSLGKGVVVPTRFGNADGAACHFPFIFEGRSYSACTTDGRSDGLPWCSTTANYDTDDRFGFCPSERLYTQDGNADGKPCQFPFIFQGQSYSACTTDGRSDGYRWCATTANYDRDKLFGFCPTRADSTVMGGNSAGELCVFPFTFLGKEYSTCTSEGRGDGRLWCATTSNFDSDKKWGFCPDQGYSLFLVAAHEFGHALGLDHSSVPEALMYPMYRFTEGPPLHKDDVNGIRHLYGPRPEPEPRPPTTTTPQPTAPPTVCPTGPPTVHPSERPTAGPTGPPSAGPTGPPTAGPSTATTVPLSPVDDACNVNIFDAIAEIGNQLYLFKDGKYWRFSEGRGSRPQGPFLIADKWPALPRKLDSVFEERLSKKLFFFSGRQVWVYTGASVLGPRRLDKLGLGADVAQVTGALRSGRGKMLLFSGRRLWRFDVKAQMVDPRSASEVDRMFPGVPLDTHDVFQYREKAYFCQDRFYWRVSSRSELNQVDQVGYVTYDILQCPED
measure: log10 of IC50 (log10 of the value in nM)
Friendly reminder: values = log10 of IC50, unit nM.

Example entries and their recorded answers appear below.
* CC(C)C(CS(=O)(=O)c1ccc(-c2cccc(CNC(=O)c3nc4ccccc4c(=O)[nH]3)c2)cc1)N(O)C=O (stereo not drawn) | 0.72
* CC(C)[C@H](NS(=O)(=O)c1ccc(-c2cccc(CNC(=O)c3nc4ccccc4c(=O)[nH]3)c2)cc1)C(=O)O | 1.56
* O=C(NCc1cccc(OCCCS(=O)(=O)N2CCCCC2C(=O)NO)c1)c1nc2ccccc2c(=O)[nH]1 (stereo not drawn) | 1.86
* O=C(NCc1cccc(N2CCN(C(=O)Cc3n[nH]c(=O)[nH]3)CC2)c1)c1nc2ccccc2c(=O)[nH]1 | 3.46
* CCOCCC1(Oc2ccc(-c3cccc(CNC(=O)c4nc5ccccc5c(=O)[nH]4)c3)cc2)C(=O)NC(=O)NC1=O | 3.20

Task item: # get_value(readout='log10 of IC50', item= CC(C)[C@H](NS(=O)(=O)c1ccc(-c2cccc(CNC(=O)c3nc4ccccc4c(=O)[nH]3)c2)cc1)C(=O)NO )
Reply: 0.67

====

assay: Clearance in human liver microsomes; type: ADME; conditions: read-out: CLH
measure: microsomal CLint (µL/min/mg)
Reply with just the number (in µL/min/mg).

* CC(=O)N(O)C(CS(=O)(=O)c1ccc(-c2cccc(CNC(=O)c3nc4ccccc4c(=O)[nH]3)c2)cc1)C(C)C (stereo not drawn) | 250

Task item: # get_value(readout='microsomal CLint', item= O=C(NCc1cccc(-c2ccc(CS(=O)(=O)Cc3n[nH]c(=O)[nH]3)cc2)c1)c1nc2ccccc2c(=O)[nH]1 )
Reply: 7

Task item: # get_value(readout='microsomal CLint', item= CCOCCC1(Oc2ccc(-c3cccc(CNC(=O)c4nc5ccccc5c(=O)[nH]4)c3)cc2)C(=O)NC(=O)NC1=O )
Reply: 12

Hello, the source for this data is ChEMBL document CHEMBL3867480, in case you need it.
